Assignment: determine reported growth inhibition for the given compounds.
Measurement Description: NCI Yeast Anticancer Drug Screen. Data for the sgs1 strain (AID 173);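 also: 0% = growth of vehicle-only control cultures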
Conditions Used: S. cerevisiae sgs1 mutant, at 3.7 µM, hits give high values
The panel holds about 79,000 compounds, 15% with a hit somewhere; the sample as a whole holds those more often.
Please reply with the bare figure in % and do not write the unit itself.

Just so you know, measured growth inhibition for C=C1C(=O)OC2CC1C(OC(C)=O)C/C(C)=C/CC/C(C)=C\CCC2(C)O (stereo not given) came out at 27

Just so you know, measured growth inhibition for COc1cc(/C=C2\NC(=O)N(/C=C3\C(=O)Oc4ccccc4C3=O)C2=O)ccc1O came out at -1

Just so you know, measured growth inhibition for O=c1c2ccccc2nc(-c2ccccc2)n1O came out at 48

Just so you know, measured growth inhibition for Cc1csc(=S)n1OC(=O)NC1CCCCC1 came out at 98

Just so you know, measured growth inhibition for Cc1ccccc1N=C(NO)c1ccccc1 came out at 6

Just so you know, measured growth inhibition for Clc1ccc2c(c1)N(CCCN1CCCC13CCCCC3)c1ccccc1S2 came out at -3

Just so you know, measured growth inhibition for Cc1ccc(N=Nc2ccc(O)c(=O)cc2)cc1 came out at 28

Just so you know, measured growth inhibition for O=C1CC(=O)c2ccccc21 came out at 2

Just so you know, measured growth inhibition for COC(=O)NC1C(C)OC(OC2C/C=C(/C)C3C=CC4C(OC5CC(OC6CC(O)C(OC7CC(O)C(OC)C(C)O7)C(C)O6)C(O)C(C)O5)C(C)CC(C)C4C3(C)/C(O)=C3\C(=O)OC4(CC(C)C(CO)=CC4/C=C\2C)C3=O)CC1(C)[N+](=O)[O-] (stereo not given) came out at -8

Just so you know, measured growth inhibition for CC(O)=NC(Cc1ccc2ccccc2c1)C(O)=NC(Cc1ccc(Cl)cc1)C(O)=NC(Cc1c[nH]c2ccccc12)C(O)=NC(CO)C(O)=NC(Cc1ccc(O)cc1)C(O)=NC(CCCN=C(N)N)C(O)=NC(CC(C)C)C(O)=NC(CCCN=C(N)N)C(=O)N1CCCC1C(O)=NC(C)C(=N)O (stereo not given) came out at -18

----------
Assignment: determine reported growth inhibition for the given compounds.
Measurement Description: NCI Yeast Anticancer Drug Screen. Data for the rad52 strain (AID 147);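 also: 0% = growth of vehicle-treated control cultures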
Conditions Used: S. cerevisiae rad52 mutant growth inhibition; at 3.7 µM; hits give high values
Compounds without any hit were thinned out: in the full panel of roughly 79,000, 15% have a hit. Active and inactive are the calls of the source. Cut-off read from the data, not from the text of the source: active = growth inhibition above about 70%; inactive = the rest.

Just so you know, measured growth inhibition for CN(C)C=NC1CCC(C(C)(C)C)CC1 (stereo not drawn) came out at 7% (inactive)

Just so you know, measured growth inhibition for OC(CCNCc1ccccc1)c1ccc2ccccc2c1 (stereo not drawn) came out at 42% (inactive)

Just so you know, measured growth inhibition for CCCCOP(=O)(CCCP(=O)(OCCCC)OCCCC)OCCCC came out at 0% (inactive)

Just so you know, measured growth inhibition for COc1cc2cc3c4cc(OC)c(OC)cc4cc[n+]3c(C)c2cc1OC came out at -21% (inactive)

Just so you know, measured growth inhibition for CC(NCCN(C)C)C1CCC2C3CCc4cc(O)ccc4C3CCC12C (stereo not drawn) came out at 16% (inactive)

Just so you know, measured growth inhibition for c1ccc2c(OCC3CO3)cccc2c1 (stereo not drawn) came out at 12% (inactive)

Just so you know, measured growth inhibition for Oc1ccc2c(c1)C(O)CCCC2 (stereo not drawn) came out at 9% (inactive)

Just so you know, measured growth inhibition for Cc1ccc(NCCNCCO)c2c(=O)c3cc(O)ccc3sc12 came out at 12% (inactive)

Just so you know, measured growth inhibition for CCCCc1nnc(NS(=O)(=O)c2ccc(C)cc2)s1 came out at -20% (inactive)

Just so you know, measured growth inhibition for CCc1nc2ccc(NCCN(C)C)c3c(=O)c4ccccc4n1c23 came out at 39% (inactive)

Just so you know, measured growth inhibition for Cc1cc(C)c(NC(=S)NC(=O)c2ccccc2)cc1C came out at -58% (inactive)

Just so you know, measured growth inhibition for O=C(Nc1ccc(Cl)cc1)Nc1nnc2nc(C(C(=O)c3cccc([N+](=O)[O-])c3Cl)c3nc4nnc(NC(=O)Nc5ccc(Cl)cc5)n4[nH]c3=O)c(=O)[nH]n12 came out at 2% (inactive)

Just so you know, measured growth inhibition for CCOC(=O)C#Cc1ccc([N+](=O)[O-])cc1 came out at -1% (inactive)

----------
Measurement Description: NCI Yeast Anticancer Drug Screen. Data for the mlh1 rad18 strain (AID 175)
Conditions Used: S. cerevisiae mlh1 rad18 strain growth inhibition; at 50.0 µM; hits give high values
About 79,000 compounds went through this panel and 15% of them were active in at least one assay; those are over-represented in the sample as a whole.
Readout: growth inhibition (%)
Please reply with the bare figure in % and do not write the unit itself.

Just so you know, measured growth inhibition for CC(C)(C)N=C(NO)c1ccccc1 came out at 81.4

Just so you know, measured growth inhibition for O=C(c1ccc([N+](=O)[O-])cc1)C1N=NCC1c1ccccc1 (stereo unspecified) came out at 42

Just so you know, measured growth inhibition for O=C(O)c1ccccc1/C=N/N=C1c2ccccc2-c2ccccc21 came out at 68.5

Just so you know, measured growth inhibition for CCCCc1nnc(NS(=O)(=O)c2ccc(C)cc2)s1 came out at 59.1

Just so you know, measured growth inhibition for CC(C)CCCC(C)C1CCC2C3CCC4=CC(=O)/C(=C\O)CC4(C)C3CCC12C (stereo unspecified) came out at 26.1

Just so you know, measured growth inhibition for N#CC(=Nc1ccccc1F)Nc1ccccc1F came out at 66.8

Just so you know, measured growth inhibition for O=C1N=C2SC=C(NC(=S)Nc3ccccc3)N2NC12c1ccccc1-c1ccccc12 came out at 69.7

Just so you know, measured growth inhibition for CC(NCCN(C)C)C1CCC2C3CCc4cc(O)ccc4C3CCC12C (stereo unspecified) came out at 82.4

Just so you know, measured growth inhibition for O=C(O)Cc1cc(F)ccc1C(=O)O came out at 38.3

Just so you know, measured growth inhibition for O=C(/C=C\c1cccc(C(F)(F)F)c1)c1ccccc1 came out at 25.9

Just so you know, measured growth inhibition for O=C1NC(=O)c2ccc([N+](=O)[O-])c3cccc1c23 came out at 37.5

Just so you know, measured growth inhibition for CS(=O)(=O)OCCN(CCOS(C)(=O)=O)c1ccc(C=Nc2ccc(-c3csc(COc4ccccc4)n3)cc2)cc1 came out at 97.2

Just so you know, measured growth inhibition for Clc1ccc2c(c1)N(CCCN1CCCC13CCCCC3)c1ccccc1S2 came out at 10.1

Just so you know, measured growth inhibition for Cc1csc(=S)n1OC(=O)NC1CCCCC1 came out at 92.1

Just so you know, measured growth inhibition for CN(C)/C=C/c1nnc([N+](=O)[O-])s1 came out at 89.8

Just so you know, measured growth inhibition for N#CC1=C(N)N(/N=C/c2ccccc2)C(c2ccccc2)C1(C#N)C#N (stereo unspecified) came out at 63.5

Just so you know, measured growth inhibition for COC(=O)CC1(O)C(/C=C/c2ccccc2)C(C(=O)OC)C(=O)C(C(=O)OC)C1C(=O)OC (stereo unspecified) came out at 85.3

Just so you know, measured growth inhibition for NC(=S)NC(=S)Nc1ccccc1 came out at 77

Just so you know, measured growth inhibition for O=C(Oc1ccc2c(c1)CN(Cc1ccccc1)CO2)c1ccccc1 came out at 83

Just so you know, measured growth inhibition for CCc1ccc2c(c1)N(CC(C)CN(C)C)c1ccccc1S2 (stereo unspecified) came out at 83.5

Just so you know, measured growth inhibition for Cc1cc(O)c(C(C)C)cc1C1(c2cc(C(C)C)c(O)cc2C)OC(=O)c2ccccc21 came out at 91.6

Just so you know, measured growth inhibition for CCOC(=N)c1ccc(O)c(OC)c1 came out at 17.4

Just so you know, measured growth inhibition for COc1cc(/C=C2\NC(=O)N(/C=C3\C(=O)Oc4ccccc4C3=O)C2=O)ccc1O came out at 89.5

Just so you know, measured growth inhibition for O=c1[nH]c(-c2ccccc2)nc2c1sc1nc3ccccc3n12 came out at -23.4

Just so you know, measured growth inhibition for O=C1C=C(Cl)C(=O)N1c1cccc(Cl)c1 came out at 99.5

Just so you know, measured growth inhibition for O=C1OC(C2=CC(=O)c3ccccc3C2=O)C(Cl)=C1Cl (stereo unspecified) came out at 94.8

Just so you know, measured growth inhibition for CN1CCN(C(=O)/C=C/C(=O)c2ccccc2)CC1 came out at 97.5

Just so you know, measured growth inhibition for CCC(C)NC1=NCC(C)S1 (stereo unspecified) came out at 62.6

Just so you know, measured growth inhibition for CCOC(=O)COc1c(OC)cc(C2C3=C(COC3=O)Oc3cc4c(cc32)OCO4)cc1OC (stereo unspecified) came out at -4.55

Just so you know, measured growth inhibition for CCOC(=O)c1[nH]n(-c2ccccc2)c(=O)c1C=NC(=S)C(N)=S came out at 86.3

Just so you know, measured growth inhibition for CC(C)OC(=O)c1ccc(CCc2cc(O)c(Br)cc2O)cc1 came out at 85.2

Just so you know, measured growth inhibition for CN(C)C=NC1CCC(C(C)(C)C)CC1 (stereo unspecified) came out at 98.2

Just so you know, measured growth inhibition for O=C1NC(SSC2=NNC3(C(=O)N2)c2ccccc2-c2ccccc23)=NNC12c1ccccc1-c1ccccc12 came out at 96.2

Just so you know, measured growth inhibition for CCC(=O)c1cc(C(=O)C(=S)SC)cc(C(=O)C(=S)SC)c1 came out at 86.8

Just so you know, measured growth inhibition for Cc1c(C(C)C)cc(OCCO)cc1C(C)C came out at 83

Just so you know, measured growth inhibition for CN(C)CCNC(=O)c1cccc2c1Oc1c(cccc1[N+](=O)[O-])O2 came out at 18.4

Just so you know, measured growth inhibition for Oc1ccc2c(c1)C(O)CCCC2 (stereo unspecified) came out at 86.8

Just so you know, measured growth inhibition for O=C1Nc2ccc(Br)cc2C1=Nc1ccc2c(c1)OCO2 came out at 6.7

Just so you know, measured growth inhibition for CN1C(=O)c2ccc3ccccc3c2C1=O came out at 23.3

Just so you know, measured growth inhibition for c1ccc(CCN2CCc3ccccc3C2)cc1 came out at 21.9

Just so you know, measured growth inhibition for C[C@@](O)(/C=C/[C@H]1CC=CC(=O)O1)[C@@H](C[C@@H](O)\C=C/C=C\C=C\CO)OP(=O)(O)O came out at 19.3
